Cited source: paper PMC6736568

test: in vitro
Counter-ions that a name gives are not always drawn.
Consider the following molecules and their measured cytotoxicity at 10 µM readings.
Write it as a number; the unit % goes unstated.

Endpoint output: cytotoxicity at 10 µM of NCCCCN [PUTRESCINE DIHYDROCHLORIDE] . Value? -3

Also CNC(=O)Oc1ccc2c(c1)[C@]1(C)CCN(C)[C@@H]1N2C [PHYSOSTIGMINE SALICYLATE] , if possible. -8.6

Also `CC1(C)[C@@H](O)CC[C@]2(C)[C@H]3C(=O)C=C4[C@H]5C[C@@](C)(C(=O)O)CC[C@]5(C)CC[C@@]4(C)[C@]3(C)CC[C@@H]12` , if possible. -0.5

Also `COc1cc(OC)c(-c2c(OC)cc(OC)cc2OC)c(OC)c1` , if possible. 5.1

Also `COc1ccc2c3c1O[C@H]1C[C@@H](O)C=C[C@@]31CCN(C)C2` , if possible. -26.2

* * *

tested on: Cryptosporidium parvum; assay: qRT-PCR assay of the growth of C. parvum in vitro in HCT-8 host cells (primary and secondary screening, EC50); assay type: cell-based; details: secondary screening at 3.3 uM
Consider the following compounds and their measured % Inhibition (3.3 uM) readings.
Write it as a number; the unit % goes unstated.

{"columns": ["compound", "test system", "units symbol", "% Inhibition (3.3 uM)"],
 "data": [
  ["COc1ccc(-c2cc(=O)c3c(O)c(OC)c(OC)c(OC)c3o2)cc1OC [DEMETHYLNOBILETIN]", "Cryptosporidium parvum", "%", 29],
  ["CC(=O)OC1CCC2(C)C(CC(OC(C)=O)C3(C)C4=CC(=O)OC(c5ccoc5)C4(C)CCC23)C1(C)C (stereo not drawn) [3alpha-ACETOXYDIHYDRODEOXYGEDUNIN]", "Cryptosporidium parvum", "%", 25],
  ["COc1ccc(-c2cc(=O)c3c(O)cc(OC)c(OC)c3o2)c(OC)c1 [5-HYDROXY-2',4',7,8-TETRAMETHOXYFLAVONE]", "Cryptosporidium parvum", "%", -83]
]}

Endpoint output: % Inhibition (3.3 uM) of COc1cc2c(cc1OC)Cc1cc(OC)c(OC)cc1Cc1cc(OC)c(OC)cc1C2 [CYCLOVERATRYLENE] . Value? -85

* * *

system: HCT-8 host cells (Hs18S); details: primary screening at 10 uM, treated vs control
Structures can show the parent of a compound that is named as a salt.
readout type: Hs18S ΔCT

{"columns": ["molecule", "test system", "reported value"],
 "data": [
  ["C[C@@H]1CC[C@@]2(OC1)O[C@H]1C[C@H]3[C@@H]4CC=C5C[C@@H](O)CC[C@]5(C)[C@H]4CC[C@]3(C)[C@H]1[C@@H]2C", "HCT-8 host cells (Hs18S)", 0.32],
  ["COc1ccc(-c2cc(=O)c3c(O)cc(OC)cc3o2)cc1", "HCT-8 host cells (Hs18S)", 0.17],
  ["CC(=O)O[C@@H]1C[C@@]23C[C@@]24CC[C@H](O[C@@H]2OC[C@@H](O)[C@H](O)[C@H]2O)C(C)(C)[C@@H]4CC[C@H]3[C@]2(C)C[C@@H]3O[C@]4(C[C@@H](C)[C@@H]3[C@@]12C)O[C@H](O)[C@@]1(C)O[C@@H]41", "HCT-8 host cells (Hs18S)", -0.41],
  ["CC1(C)CC[C@]2(C)CC[C@]3(C)C(=CC[C@@H]4[C@@]5(C)CC[C@H](O)C(C)(C)[C@@H]5CC[C@]43C)[C@@H]2C1", "HCT-8 host cells (Hs18S)", -0.12]
]}

Endpoint output: Hs18S ΔCT of C[n+]1cc2c3c(ccc2c2ccc4cc5c(cc4c21)OCO5)OCO3 [SANGUINARINE SULFATE] . Value? 0.07

Also `C[C@H](CCC(=O)O)[C@H]1CC[C@H]2[C@@H]3CC[C@@H]4CCCC[C@]4(C)[C@H]3CC[C@]12C` , if possible. -0.10
